Molecular target: CYP 2C9 (Homo sapiens, UniProt P11712)
Construct: purchased
Sequence (P11712 whole entry): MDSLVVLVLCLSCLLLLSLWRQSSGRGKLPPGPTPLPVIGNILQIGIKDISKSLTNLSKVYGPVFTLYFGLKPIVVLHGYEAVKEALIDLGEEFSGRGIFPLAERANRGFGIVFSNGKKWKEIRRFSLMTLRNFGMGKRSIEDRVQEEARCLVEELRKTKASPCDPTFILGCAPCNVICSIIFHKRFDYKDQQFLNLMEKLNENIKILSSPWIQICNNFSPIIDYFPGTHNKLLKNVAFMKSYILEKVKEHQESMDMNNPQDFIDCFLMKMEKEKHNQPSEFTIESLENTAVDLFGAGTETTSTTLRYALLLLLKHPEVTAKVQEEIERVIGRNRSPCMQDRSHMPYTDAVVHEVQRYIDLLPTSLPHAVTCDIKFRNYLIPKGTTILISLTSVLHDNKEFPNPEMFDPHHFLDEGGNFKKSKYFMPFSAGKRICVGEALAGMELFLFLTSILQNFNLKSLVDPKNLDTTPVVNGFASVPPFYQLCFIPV
Experiment: Cytochrome-P450 isoforms liability determination
Format: in vitro ADME
measurement.type: pIC50
Numbers only, as −log10 of the molar value.

# molecule O=C(CCCCCCC(=O)Nc1ccccc1)NO [SAHA, Suberoylanilide Hydroxamic Acid, reference compound] ; its pIC50 = 4.53

###

Target: HDAC6 (Homo sapiens)
Sequence (Q9UBN7 whole entry, canonical isoform): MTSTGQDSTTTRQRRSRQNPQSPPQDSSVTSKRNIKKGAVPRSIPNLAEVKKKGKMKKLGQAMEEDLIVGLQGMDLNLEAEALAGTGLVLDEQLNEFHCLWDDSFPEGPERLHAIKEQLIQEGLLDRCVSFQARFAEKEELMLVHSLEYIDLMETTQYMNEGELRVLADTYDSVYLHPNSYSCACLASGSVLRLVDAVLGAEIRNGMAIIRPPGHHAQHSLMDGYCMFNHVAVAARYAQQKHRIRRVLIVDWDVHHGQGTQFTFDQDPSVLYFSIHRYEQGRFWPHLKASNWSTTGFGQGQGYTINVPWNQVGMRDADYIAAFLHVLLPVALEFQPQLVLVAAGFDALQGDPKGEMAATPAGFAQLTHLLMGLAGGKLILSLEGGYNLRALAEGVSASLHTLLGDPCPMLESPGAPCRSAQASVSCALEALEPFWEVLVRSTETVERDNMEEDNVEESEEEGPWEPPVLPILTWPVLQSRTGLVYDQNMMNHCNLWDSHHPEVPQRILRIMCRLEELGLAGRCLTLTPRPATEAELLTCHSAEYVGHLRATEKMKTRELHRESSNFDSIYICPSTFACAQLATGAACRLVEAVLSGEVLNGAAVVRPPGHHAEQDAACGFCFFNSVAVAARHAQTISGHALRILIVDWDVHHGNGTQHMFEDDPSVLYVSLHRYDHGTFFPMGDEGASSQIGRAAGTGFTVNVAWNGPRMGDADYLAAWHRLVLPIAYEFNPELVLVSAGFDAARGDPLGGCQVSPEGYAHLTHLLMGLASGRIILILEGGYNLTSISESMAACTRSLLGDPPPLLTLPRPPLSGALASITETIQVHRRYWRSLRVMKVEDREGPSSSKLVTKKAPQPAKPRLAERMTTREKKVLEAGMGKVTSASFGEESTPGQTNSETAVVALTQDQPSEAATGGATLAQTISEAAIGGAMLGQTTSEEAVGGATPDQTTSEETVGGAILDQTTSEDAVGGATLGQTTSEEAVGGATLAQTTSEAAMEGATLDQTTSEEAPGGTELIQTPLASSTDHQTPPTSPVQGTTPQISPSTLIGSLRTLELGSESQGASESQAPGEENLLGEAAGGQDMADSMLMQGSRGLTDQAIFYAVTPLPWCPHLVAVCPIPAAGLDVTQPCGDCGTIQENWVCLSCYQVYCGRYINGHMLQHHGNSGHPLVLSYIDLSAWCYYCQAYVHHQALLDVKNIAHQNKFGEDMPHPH
Assay: Isoform selectivity assay, recombinant HDAC isoforms
measurement.type: pIC50
Numbers only, as −log10 of the molar value.

# molecule O=C(NO)c1ccc(Cn2cc(-c3ccc(CN4CCCC4)cc3)nn2)cc1 [Example 8] ; its pIC50 = 7.96

Provenance of the data: patent US20120101099A1
